# Tested on: A549/ATCC NSCLC
# test_details: NCI-60 one-dose screen, 48 h (100 = growth as untreated, 0 = no growth, -100 = all killed)
# condition_summary: 10 µM unless noted
The panel holds about 83,000 compounds, 20% with a hit somewhere; the sample as a whole holds those more often.
recorded_endpoint: growth (%)
// note: answer is a bare numeric in %

# returns recorded growth (system: A549/ATCC NSCLC) for `Nc1ncc(-c2ccc(NS(=O)(=O)c3ccc(Cl)c(Cl)c3)cc2)[nH]1` 92.5

Then this compound: `O=C(CCn1c[n+](CC(=O)c2ccc(-c3ccccc3)cc2)c2ccccc21)Nc1cccc2cccnc12` 89.8

Then this compound: `Cc1ccc(NC(=O)CNc2cc(C(N)=O)cc(F)c2C)c(Cl)c1` 91.9
